These measurements were taken from PubChem BioAssay (NCI).

test system: MDA-MB-435 melanoma; assay: NCI-60 one-dose screen, 48 h (100 = growth as untreated, 0 = no growth, -100 = all killed); conditions: 10 µM
This is part of a sample that, as a whole, favours compounds with a hit. Of some 83,000 tested, about 20% had one in any assay. Active and inactive are the calls of the source. How the source made its calls: active means growth percent below 10; inactive means the rest.
Measurement label: growth

Query string: Which measured growth value corresponds to C/C(=N\NC(N)=S)C(C)(C)O ?
Result string: 96.9% (inactive)

Query string: Which measured growth value corresponds to CC1(C)CCc2cc(-c3ccn(S(=O)(=O)c4ccc(Cl)cc4)n3)ccc2O1 ?
Result string: 85.8% (inactive)

----------
test system: NCI-H226 lung; experiment: NCI-60 one-dose screen, 48 h; settings: 10 µM
Compounds without any hit were thinned out: in the full panel of roughly 83,000, 20% have a hit. Active and inactive are the calls of the source. Rule for the calls: active = growth percent below 10; inactive = the rest.
Output constraint: value belongs to 1 (active), -1 (inactive)

Would you please look over these solved cases?
{"columns": ["Compound", "Assigned class"],
 "data": [
  ["CCCCCCCCCCCCCC[n+]1ccc(C)cc1", -1],
  ["COc1ccc(OC)c([N+](=O)[O-])c1C=O", -1],
  ["O=C(CCl)N1c2ccccc2Sc2ccc3ccccc3c21", -1],
  ["O=C(CCCC(=O)N/N=C/c1cc(Cl)ccc1O)N/N=C\\c1cc(Cl)ccc1O", -1],
  ["FC(F)(F)c1ccc(-c2cnc(Cl)nc2NCc2cc(C(F)(F)F)cc(C(F)(F)F)c2)cc1", 1]
]}

Query string: Called result for Cc1ccc2nc3[nH]c(=O)[nH]c(=O)c3c(N)c2c1
Result string: -1

Query string: Called result for O=c1[nH]c(=O)n(C2C[C@@H](O)[C@@H](CO)O2)cc1F (stereo not given in full)
Result string: -1

Query string: Called result for CN(C)c1ccc2cc(-c3cc4c(oc3=O)-c3ccccc3OC4O)c(=O)oc2c1 (stereo not given)
Result string: 1

Query string: Called result for COc1cccc(C2(C)Nc3ccccc3-c3nc4ccccc4n32)c1 (stereo not given)
Result string: -1

Query string: Called result for COc1cc(-c2n/c(=C\c3c(O)[nH]c4ccccc34)cc3c2=Nc2ccccc2-3)cc(OC)c1OC
Result string: -1

----------
test system: A549/ATCC NSCLC; assay: NCI-60 one-dose screen, 48 h (100 = growth as untreated, 0 = no growth, -100 = all killed); conditions: 10 µM
This is part of a sample that, as a whole, favours compounds with a hit. Of some 83,000 tested, about 20% had one in any assay.
Measurement label: growth (%)
Numbers only; they are read as %.

Query string: Lab note: need growth with A549/ATCC NSCLC for entry O=C(O)CN1C(=O)C=CC1=O , please look it up.
Result string: 108

Query string: Lab note: need growth with A549/ATCC NSCLC for entry COc1cccc2c1O/C(=C\c1ncc([N+](=O)[O-])n1C)C2=O , please look it up.
Result string: -23.8

Query string: Lab note: need growth with A549/ATCC NSCLC for entry O=C(c1ccccc1)C(Sc1ccccc1)c1ccccc1 (stereo not drawn) , please look it up.
Result string: 92

Query string: Lab note: need growth with A549/ATCC NSCLC for entry COc1cc(CSc2nc3ccc(C)cc3c(=O)n2-c2ccccc2)cc(OC)c1OC , please look it up.
Result string: 39.3

Query string: Lab note: need growth with A549/ATCC NSCLC for entry CCN(CC)c1ccc(/C=C/C2=[N+](C)c3ccccc3C2(C)C)c(C)c1 , please look it up.
Result string: 9.85

Query string: Lab note: need growth with A549/ATCC NSCLC for entry O=S(=O)(O)C1(O)CCCCC1 , please look it up.
Result string: 98.9

Query string: Lab note: need growth with A549/ATCC NSCLC for entry O=C1/C(=C/c2ccc(O)cc2)Cc2ccc(Cl)cc21 , please look it up.
Result string: 85.9
